Assay: total protein half-life in vivo (active degradation + dilution); higher = more stable protein
Conditions: E. coli NCM3722 delta-clpP delta-lon delta-hslV; growth: N-lim chemostat; doubling time 6 h
Collected total protein half-life in vivo values appear next to each entry.
Your answer is read as h, so omit the unit and give the number.

MMNFNNVFRWHLPFLFLVLLTFRAAAADTLLILGDSLSAGYRMSASAAWPALLNDKWQSKTSVVNASISGDTSQQGLARLPALLKQHQPRWVLVELGGNDGLRGFQPQQTEQTLRQILQDVKAANAEPLLMQIRLPANYGRRYNEAFSAIYPKLAKEFDVPLLPFFMEEVYLKPQWMQDDGIHPNRDAQPFIADWMAKQLQPLVNHDS [P0ADA1] = 4.1
MGFKCGIVGLPNVGKSTLFNALTKAGIEAANFPFCTIEPNTGVVPMPDPRLDQLAEIVKPQRTLPTTMEFVDIAGLVKGASKGEGLGNQFLTNIRETEAIGHVVRCFENDNIIHVSGKVNPADDIEVINTELALADLDTCERAIHRVQKKAKGGDKDAKAELAVLEKCLPQLENAGMLRALDLSAEEKAAIRYLSFLTLKPTMYIANVNEDGFENNPYLDQVREIAAKEGSVVVPVCAAVEADIAELDDEERDEFMQELGLEEPGLNRVIRAGYKLLNLQTYFTAGVKEVRAWTIPVGATAPQAAGKIHTDFEKGFIRAQTISFEDFITYKGEQGAKEAGKMRAEGKDYIVKDGDVMNFLFNV [P0ABU2] = 3.92

Here's the next entry for you.
Record summary for MKTGMFTCGHQRLPIEHAFRDASELGYDGIEIWGGRPHAFAPDLKAGGIKQIKALAQTYQMPIIGYTPETNGYPYNMMLGDEHMRRESLDMIKLAMDMAKEMNAGYTLISAAHAGYLTPPNVIWGRLAENLSELCEYAENIGMDLILEPLTPYESNVVCNANDVLHALALVPSPRLFSMVDICAPYVQAEPVMSYFDKLGDKLRHLHIVDSDGASDTHYIPGEGKMPLRELMRDIIERGYEGYCTVELVTMYMNEPRLYARQALERFRALLPEDER : reported total protein half-life in vivo = 7.09

---

Test: total protein half-life in vivo (active degradation + dilution); higher = more stable protein
Conditions: wild type E. coli NCM3722; growth: C-lim chemostat; doubling time 6 h
outcome_measure: total protein half-life in vivo (h)
Your answer is read as h, so omit the unit and give the number.

MAKVLVLYYSMYGHIETMARAVAEGASKVDGAEVVVKRVPETMPPQLFEKAGGKTQTAPVATPQELADYDAIIFGTPTRFGNMSGQMRTFLDQTGGLWASGALYGKLASVFSSTGTGGGQEQTITSTWTTLAHHGMVIVPIGYAAQELFDVSQVRGGTPYGATTIAGGDGSRQPSQEELSIARYQGEYVAGLAVKLNG [P0A8G6] = 5.98

Record summary for MDNDKIDQHSDEIEVESEEKERGKKIEIDEDRLPSRAMAIHEHIRQDGEKELERDAMALLWSAIAAGLSMGASLLAKGIFQVELEGVPGSFLLENLGYTFGFIIVIMARQQLFTENTVTAVLPVMQKPTMSNVGLLIRLWGVVLLGNILGTGIAAWAFEYMPIFNEETRDAFVKIGMDVMKNTPSEMFANAIISGWLIATMVWMFPAAGAAKIVVIILMTWLIALGDTTHIVVGSVEILYLVFNGTLHWSDFIWPFALPTLAGNICGGTFIFALMSHAQIRNDMSNKRKAEARQKAERAENIKKNYKNPA : reported total protein half-life in vivo = 5.51

Record summary for MATDSTQCVKKSRGRPKVFDRDAALDKAMKLFWQHGYEATSLADLVEATGAKAPTLYAEFTNKEGLFRAVLDRYIDRFAAKHEAQLFCEEKSVESALADYFAAIANCFTSKDTPAGCFMINNCTTLSPDSGDIANTLKSRHAMQERTLQQFLCQRQARGEIPPHCDVTHLAEFLNCIIQGMSISAREGASLEKLMQIAGTTLRLWPELVK : reported total protein half-life in vivo = 2.99

Record summary for MSAVLTAEQALKLVGEMFVYHMPFNRALGMELERYEKEFAQLAFKNQPMMVGNWAQSILHGGVIASALDVAAGLVCVGSTLTRHETISEDELRQRLSRMGTIDLRVDYLRPGRGERFTATSSLLRAGNKVAVARVELHNEEQLYIASATATYMVG [P0ADP2] : reported total protein half-life in vivo = 5.73

Record summary for MKSLSYKRIYKSQEYLATLGTIEYRSLFGSYSLTVDDTVFAMVSDGELYLRACEQSAQYCVKHPPVWLTYKKCGRSVTLNYYRVDESLWRNQLKLVRLSKYSLDAALKEKSTRNTRERLKDLPNMSFHLEAILGEVGIKDVRALRILGAKMCWLRLRQQNSLVTEKILFMLEGAIIGIHEAALPVARRQELAEWADSLTPKQEFPAELE : reported total protein half-life in vivo = 4.19

Record summary for MSIKTIKYFSTIIVAVVAVLAGWWLWNYYMQSPWTRDGKIRAEQVSITPQVSGRIVELNIKDNQLVNAGDLLLTIDKTPFQIAELNAQAQLAKAQSDLAKANNEANRRRHLSQNFISAEELDTANLNVKAMQASVDAAQATLKQAQWQLAQTEIRAPVSGWVTNLTTRIGDYADTGKPLFALVDSHSFYVIGYFEETKLRHIREGAPAQITLYSDNKTLQGHVSSIGRAIYDQSVESDSSLIPDVKPNVPWVRLAQRVPVRFALDKVPGDVTLVSGTTCSIAVGQ : reported total protein half-life in vivo = 6.64

Record summary for MAANAFVRARIDEDLKNQAADVLAGMGLTISDLVRITLTKVAREKALPFDLREPNQLTIQSIKNSEAGIDVHKAKDADDLFDKLGI : reported total protein half-life in vivo = 0.925
